Tested on: Staphylococcus aureus
Test: agar serial dilution test, minimum inhibitory concentration
Type: cell-based
Conditions: Staphylococcus aureus, ST AU strain CHP
This listing pairs molecules with measured MIC.
Answer in µg/mL, number only, no unit symbol.

substance_smiles=CSC(=NC#N)SCC(=O)N[C@@H]1C(=O)N2C(C(=O)O)=C(COC(C)=O)CS[C@H]12 test_system="Staphylococcus aureus" quantity_measured=MIC observed_measurement=7.81
substance_smiles=CC(=O)OCC1=C(C(=O)O)N2C(=O)[C@@H](NC(=O)CSC(SCC#N)=C(C#N)C#N)[C@H]2SC1 test_system="Staphylococcus aureus" quantity_measured=MIC observed_measurement=1.95
substance_smiles=CC(=O)OCC1=C(C(=O)O)N2C(=O)[C@@H](NC(=O)CSC(=C[N+](=O)[O-])SCC#N)[C@H]2SC1 test_system="Staphylococcus aureus" quantity_measured=MIC observed_measurement=3.9
substance_smiles=COC(=O)CSC(SCC(=O)N[C@@H]1C(=O)N2C(C(=O)O)=C(COC(C)=O)CS[C@H]12)=C(C#N)C(N)=O test_system="Staphylococcus aureus" quantity_measured=MIC observed_measurement=3.9
substance_smiles=C=CCSC(=NC#N)SCC(=O)N[C@@H]1C(=O)N2C(C(=O)O)=C(COC(C)=O)CS[C@H]12 test_system="Staphylococcus aureus" quantity_measured=MIC observed_measurement=7.81

Lab entry: Staphylococcus aureus assay, molecule C#CCSC(=NC#N)SCC(=O)N[C@@H]1C(=O)N2C(C(=O)O)=C(COC(C)=O)CS[C@H]12 , MIC = 3.9

Lab entry: Staphylococcus aureus assay, molecule CC(=O)OCC1=C(C(=O)O)N2C(=O)[C@@H](NC(=O)CSC(=NC#N)SCc3ccc([N+](=O)[O-])cc3)[C@H]2SC1 , MIC = 3.9
